The reader will find reported TGI values listed item by item below.
System: HS 578T breast
Experiment: NCI tumour cell line growth inhibition, 48 h

molecule	parameter	result
COc1cc2nc(N3CCCC3)nc(NCC3CCCCC3)c2cc1OC	TGI	3.71 µM
Cc1n[nH]c(=O)c2cc(-c3ccccc3)[nH]c12	TGI	> 100 µM
C=CCOC1OC(CO[Si](C)(C)C(C)(C)C)C(OCc2ccccc2)C(OCc2ccccc2)C1OCc1ccccc1 (centres undefined)	TGI	> 100 µM

State its TGI: N#C/C(=C\c1c(-c2ccccc2)[nH]c2ccccc12)S(=O)(=O)c1ccccc1 > 26.8 µM

State its TGI: COc1ccc(NC(=O)CC(=O)N2N=C(C)C(N=Nc3ccc(S(=O)(=O)c4ccc(N=NC5C(=O)N(C(=O)CC(=O)Nc6ccc(OC)cc6)N=C5C)cc4)cc3)C2=O)cc1 (centres undefined) > 100 µM

State its TGI: N/C(=N\N=C\c1ccc(-c2ccccc2)cc1)N[N+](=O)[O-] > 61.3 µM

====

Tested on: HL-60(TB) leukemia
Assay: NCI tumour cell line growth inhibition, 48 h
# binarize TGI: threshold 9 µM inclusive, high side Satisfied, low side Not satisfied

smiles data	label value
COc1ccc(-c2n[nH]nc2-c2cc(OC)c3c(c2OC)OCO3)cc1	Not satisfied
O=[N+]([O-])/C=C1\COCc2cc3c(cc21)OCO3	Satisfied
O=[N+]([O-])c1cccc(-c2nc3sccn3c2-c2ccnc(NCCCNS(=O)(=O)c3cccc(F)c3)n2)c1	Not satisfied
O=S(=O)(Sc1ccc(Cl)cc1)c1ccc(Cl)cc1	Satisfied

Could you tell me if the measured TGI of CCCCCCNC(=O)c1cnc(Cl)cn1 reaches 9 µM or more? Satisfied

Could you tell me if the measured TGI of Cc1ccc(-c2nc3ccc(Cl)cc3[nH]2)cc1 reaches 9 µM or more? Satisfied

====

System: SF-539 CNS
Assay: NCI tumour cell line growth inhibition, 48 h
The reader will find reported GI50 values listed item by item below.

Before answering, review these 5 worked examples.
compound	GI50
Cc1ccc(NC(=O)/C=C/c2ccccc2)c(C(N)=O)c1	2.07 µM
COc1cc2nc(N3CCCC3)nc(NCC3CCCCC3)c2cc1OC	0.817 µM
O=C1c2c(c3c4ccccc4[nH]c3c3ccc4ccccc4c23)C(=O)N1CCN1CCCCC1	1.41 µM
Cc1ccc(-c2cc(-c3ccc(C)cc3)nc(NCCNc3ccnc4cc(Cl)ccc34)n2)cc1	1.91 µM
COc1cccc(NC(=O)c2sc3nc4c(cc3c2N)CN(Cc2ccccc2)CC4)c1	1.99 µM

API: the following record is the query input.
State its GI50: CCN1CCC(CCOC)(CN2c3ccccc3Sc3ccc(Cl)cc32)C1 (stereo unspecified) 1.76 µM

====

The reader will find reported TGI values listed item by item below.
Tested on: SNB-75 CNS
Assay: NCI tumour cell line growth inhibition, 48 h

Before answering, review these 10 worked examples.
molecule	system	parameter	result
Cc1cc2c3ccc(C)[n+](C)c3ccc2n1C	SNB-75 CNS	TGI	14.7 µM
Cc1ccc(Oc2ccc(C)cc2[N+](=O)[O-])cc1	SNB-75 CNS	TGI	> 100 µM
COc1c2c(cc3oc(C)cc(=O)c13)OC(=N)C(C(N)=O)C2CC(=O)c1ccc(N)cc1 (stereo unspecified)	SNB-75 CNS	TGI	> 100 µM
COC(=O)c1c2n(c3ccccc13)C[C@H]1OC(C)(C)O[C@@H]21	SNB-75 CNS	TGI	> 100 µM
CCOC(=O)c1oc2ccc(OC)c3c2c1CCC3	SNB-75 CNS	TGI	> 100 µM
NC(N)=N/N=C/c1c(-c2ccccc2)nc2n1ccc1nc(-c3ccccc3)c(/C=N/N=C(N)N)n12	SNB-75 CNS	TGI	> 100 µM
CN1CCCCC1CCN1CCCCC1 (stereo unspecified)	SNB-75 CNS	TGI	> 100 µM
CCCCNCC(=O)O[C@]1(CC)C(=O)OCc2c1cc1n(c2=O)Cc2cc3ccccc3nc2-1	SNB-75 CNS	TGI	3.44 µM
O=NC1C(Cl)C2CC1C1C(Br)C(Br)CC21 (stereo unspecified)	SNB-75 CNS	TGI	> 100 µM
O=c1cc(-c2ccccc2)[nH]c2cc(O)ccc12	SNB-75 CNS	TGI	72.5 µM

State its TGI: CCOC(=O)C(C)(c1cn(C)c2ccccc12)c1cn(C)c2ccccc12 51.9 µM

State its TGI: CCC1CN2CCc3cc(OC)c(OC)cc3C2CC1CC1c2cc(OC)c(OC)cc2CCN1C(=O)C1CCCN1C(=O)OCc1ccccc1 (stereo unspecified) 28.3 µM

State its TGI: CSc1nc(N)c(NC2OC(CO)C(O)C2O)c(=O)[nH]1 (stereo unspecified) > 100 µM

State its TGI: COC(=O)Cn1c2c(c3c(O)cccc31)C(=O)c1ccccc1-2 > 100 µM

State its TGI: COc1cc(OC)c(/C=C2\N=C(C)N(Nc3nnc(NN4C(=O)/C(=C/c5c(OC)cc(OC)cc5OC)N=C4C)c4ccccc34)C2=O)c(OC)c1 > 100 µM

State its TGI: CC1C(c2ccccc2)OP(=O)(OC(C#N)c2ccccc2)N1C (stereo unspecified) > 100 µM

State its TGI: CN(C)c1nc(=Nc2ccc3ccccc3c2)ss1 > 100 µM

State its TGI: CC12CCC(C(=O)OC1=O)C(C)(C)O2 (stereo unspecified) > 100 µM

State its TGI: COc1cc(C(=O)C/C(CCC(=O)Nc2ccccc2[N+](=O)[O-])=N\NC(=O)CC#N)ccc1O > 100 µM

State its TGI: COC(=O)C1CC2(CCC1=O)Cc1ccccc1C2=O (stereo unspecified) > 100 µM

State its TGI: COc1ccccc1NC(=O)/C(Cc1nc2ccc([N+](=O)[O-])cc2[nH]c1=O)=N\NC(=O)C[N+](C)(C)C > 100 µM
